Target: HIV-1 protease (Human immunodeficiency virus type 1 group M subtype B)
Construct: The protease (or proteinase) enzyme, consisting of only 99 amino acids
Experiment: In vitro HIV protease inhibitory assay (fluorescently labeled substrate, avidin-polystyrene particles)
Type: biochemical
Details: test compound concentration 3.3 μM
REPORTED PROPERTY: HIV-1 Protease % Inhibition (%)

Worked examples, 3 molecules total:
molecule="CCCC1(CCC)OC(=O)C(C(c2cccc(N)c2)C2CC2)=C1O (centres unmarked)" assay_result=117.79
molecule="O=C1OC2(CCCCC2CCc2ccccc2)C(O)=C1C(c1ccccc1)C1CC1 (centres unmarked) [IX-5]" assay_result=91.93
molecule="CCCC1(CCC)OC(=O)C(C(c2cccc(NS(=O)(=O)c3ccc(C#N)c(C4CCCC4)c3)c2)C2CCCC2)=C1O (centres unmarked)" assay_result=86.97

A: O=C1OC2(CCCCC2CCc2ccccc2)C(O)=C1C(c1ccccc1)C1CC1 (centres unmarked) [IX-4]
B: O=C1OC2(CCCCC2Cc2ccccc2)C(O)=C1C(c1ccccc1)C1CC1 (centres unmarked)
Compare HIV-1 Protease % Inhibition: is it lower for A or for B ? Record your answer as the label of the chosen record.
A
(A: 56.89%, B: 102.85%)

###

Target: HIV-1 protease (Human immunodeficiency virus type 1 group M subtype B)
Construct: The protease (or proteinase) enzyme, consisting of only 99 amino acids
Assay: In vitro HIV protease inhibitory assay (fluorescently labeled substrate, avidin-polystyrene particles)
Assay type: biochemical
Settings: HIV-1 dose 0.37 μM
REPORTED PROPERTY: inhibition at 0.37 µM (%)

compound="CCCC1(CCC)OC(=O)C(C(c2cccc(NS(=O)(=O)c3ccccc3)c2)C2CC2)=C1O (stereo not shown) [IX-15]" unit_tag=% assay_result=102

I: CC(C)CC1(CCCc2ccccc2)OC(=O)C(C(c2ccccc2)C2CC2)=C1O (stereo not shown) [DX-20]
II: O=C1OC(CCCc2ccccc2)(CC2CC2)C(O)=C1C(c1ccccc1)C1CC1 (stereo not shown) [DX-14]
Param pair: I , II . Output: the one whose inhibition at 0.37 µM is numerically greater. Let me know the label of the one you choose.
II
(II: 104%, I: 71.5%)

###

Target: HIV-1 protease (Human immunodeficiency virus type 1 group M subtype B)
Construct: The protease (or proteinase) enzyme, consisting of only 99 amino acids
Assay: In vitro HIV protease inhibitory assay (fluorescently labeled substrate, avidin-polystyrene particles)
Assay type: biochemical
Conditions: HIV-1 dose 30.0 μM
REPORTED PROPERTY: inhibition at 30 µM (%)

compound="CCCCC(CCc1ccccc1)C1OC(=O)C(C(c2ccccc2)C2CC2)=C1O (single isomer, unassigned) [GX-1]" reported_property="inhibition at 30 µM" assay_result=74

a: CCC1(Cc2ccccc2)OC(=O)C(C(c2ccccc2)C2CC2)=C1O (stereo not drawn)
b: O=C1OC2(CCNCC2)C(O)=C1C(c1ccccc1)C1CC1 (stereo not drawn)
Min inhibition at 30 µM? a | b Mark your selection by writing its label.
b

###

Target: HIV-1 protease (Human immunodeficiency virus type 1 group M subtype B, UniProt P04585)
Construct: The protease (or proteinase) enzyme, consisting of only 99 amino acids
Test: In vitro HIV protease inhibitory assay (fluorescently labeled substrate, avidin-polystyrene particles)
Format: biochemical
Conditions: HIV-1 dose 100.0 μM
REPORTED PROPERTY: inhibition at 100 µM (%)

compound="O=C1OC(CCCc2ccccc2)C(O)=C1C(c1ccccc1)C1CC1 (stereo not drawn) [BX-3]" system="HIV-1 protease (Human immunodeficiency virus type 1 group M subtype B, UniProt P04585)" reported_property="inhibition at 100 µM" unit_tag=% assay_result=93.2
compound="O=C1OC(CCc2ccccc2)C(O)=C1C(c1ccccc1)C1CC1 (stereo not drawn) [BX-2]" system="HIV-1 protease (Human immunodeficiency virus type 1 group M subtype B, UniProt P04585)" reported_property="inhibition at 100 µM" unit_tag=% assay_result=81.4
compound="O=C1OC2(CCCC2)C(O)=C1C(c1ccccc1)C1CC1 (stereo not drawn) [CX-1]" system="HIV-1 protease (Human immunodeficiency virus type 1 group M subtype B, UniProt P04585)" reported_property="inhibition at 100 µM" unit_tag=% assay_result=109
compound="O=C1OC(Cc2ccccc2)C(O)=C1C(c1ccccc1)C1CC1 (stereo not drawn) [BX-1]" system="HIV-1 protease (Human immunodeficiency virus type 1 group M subtype B, UniProt P04585)" reported_property="inhibition at 100 µM" unit_tag=% assay_result=90.5
compound="O=C1OC(CCC2CCCCC2)C(O)=C1C(c1ccccc1)C1CC1 (stereo not drawn) [BX-5]" system="HIV-1 protease (Human immunodeficiency virus type 1 group M subtype B, UniProt P04585)" reported_property="inhibition at 100 µM" unit_tag=% assay_result=71.5
compound="CCCC1OC(=O)C(C(c2ccccc2)C2CC2)=C1O (stereo not drawn) [BX-4]" system="HIV-1 protease (Human immunodeficiency virus type 1 group M subtype B, UniProt P04585)" reported_property="inhibition at 100 µM" unit_tag=% assay_result=83.3

###

Target: HIV-1 protease (Human immunodeficiency virus type 1 group M subtype B, UniProt P04585)
Construct: The protease (or proteinase) enzyme, consisting of only 99 amino acids
Test: In vitro HIV protease inhibitory assay (fluorescently labeled substrate, avidin-polystyrene particles)
Assay type: biochemical
Conditions: HIV-1 dose 30.0 μM
REPORTED PROPERTY: inhibition at 30 µM (%)

Here are 5 compounds together with their reported answers.
compound="CCCC1(CCC)OC(=O)C(C(c2cccc(NS(=O)(=O)c3ccc(C#N)cc3)c2)C2CC2)=C1O (stereo not drawn)" system="HIV-1 protease (Human immunodeficiency virus type 1 group M subtype B, UniProt P04585)" reported_property="inhibition at 30 µM" assay_result=119
compound="CCCC1(CCC)OC(=O)C(C(c2cccc(NS(=O)(=O)c3cccc4cccnc34)c2)C2CC2)=C1O (stereo not drawn)" system="HIV-1 protease (Human immunodeficiency virus type 1 group M subtype B, UniProt P04585)" reported_property="inhibition at 30 µM" assay_result=106
compound="C=CCC1(CCCc2ccccc2)OC(=O)C(C(c2ccccc2)C2CC2)=C1O (stereo not drawn)" system="HIV-1 protease (Human immunodeficiency virus type 1 group M subtype B, UniProt P04585)" reported_property="inhibition at 30 µM" assay_result=118
compound="O=C1OC(CCCc2ccccc2)C(O)=C1C(Cc1ccccc1)c1ccccc1 (stereo not drawn)" system="HIV-1 protease (Human immunodeficiency virus type 1 group M subtype B, UniProt P04585)" reported_property="inhibition at 30 µM" assay_result=50.6
compound="CCCC1(CCCc2ccccc2)OC(=O)C(C(c2ccccc2)C2CC2)=C1O (stereo not drawn)" system="HIV-1 protease (Human immunodeficiency virus type 1 group M subtype B, UniProt P04585)" reported_property="inhibition at 30 µM" assay_result=105

A: CCCC1(CCc2ccccc2)OC(=O)C(C(c2ccccc2)C2CC2)=C1O (stereo not drawn)
B: O=C1OC(C(O)C=Cc2ccccc2)C(O)=C1C(c1ccccc1)C1CC1 (stereo not drawn)
Of A and B , which shows the smaller inhibition at 30 µM value? Answer format: the label of the selected item.
B

###

Biological target: HIV-1 protease (Human immunodeficiency virus type 1 group M subtype B, UniProt P04585)
Construct: The protease (or proteinase) enzyme, consisting of only 99 amino acids
Assay: In vitro HIV protease inhibitory assay (fluorescently labeled substrate, avidin-polystyrene particles)
Assay type: biochemical
Details: HIV-1 dose 10.0 μM
Procedure: The HIV protease screening assay is based on a fluorescently labeled substrate which can be resolved from nonlabeled cleavage product using avidin-polystyrene particles, 0.7-0.9 μm. […] The labeled cleavage product is separated from the unreacted substrate via filtration and is read on the IDEXX Screen Machine. (IDEXX Corporation--Portland, Me.) The data are analyzed by appropriate computer algorithms to ascertain percent inhibition values. […]
REPORTED PROPERTY: inhibition at 10 µM (%)

These solved cases illustrate the format of a correct answer.
molecule="CCCC1(CCC)OC(=O)C(C(CC)c2cccc(NS(=O)(=O)c3ccccc3)c2)=C1O (stereo not drawn)" assay_result=101
molecule="CCCC1(Cc2cccnc2)OC(=O)C(C(c2ccccc2)C2CC2)=C1O (stereo not drawn)" assay_result=102
molecule="O=C1OC(CCc2ccccc2)(CCc2ccccc2)C(O)=C1C(c1ccccc1)C1CC1 (stereo not drawn)" assay_result=104
molecule="O=C1O/C(=C\\c2ccccc2)C(O)=C1C(c1ccccc1)C1CC1 (stereo not drawn)" assay_result=87.7
molecule="CCCC1(CCCc2ccccc2)OC(=O)C(C(c2ccccc2)C2CC2)=C1O (stereo not drawn)" assay_result=106
molecule="CCCC1(CCC)OC(=O)C(C(c2cccc(NS(=O)(=O)c3ccc(F)cc3)c2)C2CC2)=C1O (stereo not drawn)" assay_result=109

P: O=C1OC(CC=Cc2ccccc2)C(O)=C1C(c1ccccc1)C1CC1 (stereo not drawn)
Q: O=C1OC2(CCCCC2)C(O)=C1C(c1ccccc1)C1CC1 (stereo not drawn)
// compare: P vs Q , metric inhibition at 10 µM, want the smaller Answer with the label corresponding to your selection.
P
(P: 77.2%, Q: 114%)

A: CCC(C1=C(O)C(CCc2ccccc2)OC1=O)c1ccccc1 (stereo not drawn)
B: CCCCC1(CCCc2ccccc2)OC(=O)C(C(c2ccccc2)C2CC2)=C1O (stereo not drawn)
For this pair, A and B , which shows a numerically higher inhibition at 10 µM? Label of pick, please.
B

A: CCCC1(CCC)OC(=O)C(C(c2cccc(NS(=O)(=O)c3ncccn3)c2)C2CC2)=C1O (stereo not drawn)
B: O=C1OC(CCC2CCCCC2)C(O)=C1C(c1ccccc1)C1CC1 (stereo not drawn)
Param metric = inhibition at 10 µM; output whichever of A , B has the minimum value. Write the label of whichever entry you select.
B
(B: 61.2%, A: 93.8%)

Data provenance: patent US5977169A
